- Tested on: NDR1
- Construct: gene STK38
- test-parameters: concentration: 1 μM, replicates: in singlicate; n = 1;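 note: KINOMEscan kinase panel screen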
recorded-metric: %Inh
# output: number + unit

CN1C(=O)C(Nc2ccc(Cl)c(C(=O)O)c2)=C(c2ccc(Cl)cc2)C1=O ... 0%
Fc1cc(Cl)ccc1Nc1ccnc2cc(I)ccc12 ... 18%
Cc1ccccc1-n1cnc2c(N)ncnc21 ... 0%

# next compound below
Record "COc1ccc(C2=C(Nc3cccc(C(=O)O)c3)C(=O)NC2=O)cc1" has NDR1 %Inh equal to 2%

###

Catalogue of %Inh readings, one per entry.
- Test system: SRPK1
- test-parameters: concentration: 1 μM, replicates: in singlicate; n = 1
Quick reminder: number only, in %, skip the unit.

Example entries and their recorded answers appear below.
COC(=O)c1c(-c2ccccc2)c2cc(OC)ccc2c(=O)n1Cc1ccccc1 ... 5
COC(=O)c1c(-c2ccccc2)c2cc(C(=O)O)ccc2c(=O)n1Cc1ccccc1 ... 0
COc1ccc(Nc2nccc(NCCNC(=O)Nc3ccccc3F)n2)cc1 ... 0
Cc1cccc(-c2nc(Nc3ccc4[nH]ncc4c3)c3ccccc3n2)n1 ... 16
COc1cc2ncn(-c3cc(OCC4CCCO4)c(C(N)=O)s3)c2cc1OC (stereo not shown) ... 28
CCn1c(-c2ccccn2)nc2cnccc21 ... 0

Record "Cc1cccc(-c2nc(Nc3ccncc3)c3ccccc3n2)n1" . Reported %Inh: 0

###

Catalogue of %Inh readings, one per entry.
- Test system: MELK
- test-parameters: concentration: 1 μM, replicates: in singlicate; n = 1
Quick reminder: number only, in %, skip the unit.

O=C(Nc1n[nH]c2cc(-c3cccc(F)c3F)ccc12)C1CC1 ... 0
Cc1ccc(NC(=O)Nc2cccc(Cl)c2)cc1-c1ccc(C(=O)Nc2ccncc2)cc1 ... 0
COc1ccccc1CNC(=O)c1cc(C(=O)c2ccccc2C)c[nH]1 ... 0
Cn1ccc2ncnc(Oc3cccc(C(=O)Nc4ccccc4)c3)c21 ... 9
Cc1ccc(NC(=O)Nc2cc(C(C)(C)C)nn2-c2ccccc2)cc1 ... 26

Record "Cl.O=C(Nc1cccc(-c2nn3ncccc3c2-c2ccnc(Nc3cccnc3)n2)c1)c1c(F)cccc1F" . Reported %Inh: 3

Record "Cc1cccc(-c2nc(Nc3ccncc3)c3ccccc3n2)n1" . Reported %Inh: 11

###

- System: EPHB2
- test-parameters: concentration: 1 μM, replicates: in singlicate; n = 1
recorded-metric: %Inh (%)
Quick reminder: number only, in %, skip the unit.

Example entries and their recorded answers appear below.
COc1ccc(Nc2nccc(-c3cccc(NC(=O)c4cc5cc(F)ccc5[nH]4)c3)n2)cc1 ... 14
Cc1csc(-c2nc(Nc3ccncc3)c3ccccc3n2)n1 ... 0
Cl.Oc1ccc(-c2nc(-c3ccccc3)[nH]c2-c2ccncc2)cc1 ... 4

Record "Cc1ccc(C(=O)Nc2ccc(Nc3ccnc4cc(-c5ccccn5)ccc34)cc2O)cc1.Cl" . Reported %Inh: 14

Record "COc1ccc2nc(-c3cccc(C)n3)nc(Nc3ccncc3)c2c1" . Reported %Inh: 0

Record "Cc1cc(N2Cc3ccccc3C2)nc(Nc2ccc(S(=O)(=O)N3CCOCC3)cc2)n1.Cl" . Reported %Inh: 0

Record "O=C(Nc1ccccc1)Nc1cccc(Oc2ccc3nccn3n2)c1" . Reported %Inh: 3

Record "CS(=O)(=O)c1ccc(-c2nc3n(c2-c2ccncc2)CCC3)cc1" . Reported %Inh: 9

Record "CSc1nn2c(=O)cc(N3CCOCC3)nc2n1Cc1cccc(C(F)(F)F)c1C" . Reported %Inh: 0

###

Catalogue of %Inh readings, one per entry.
- System: LRRK2
- test-parameters: concentration: 1 μM, replicates: in singlicate; n = 1
Quick reminder: number only, in %, skip the unit.

Example entries and their recorded answers appear below.
Clc1cc(Cl)cc(Nc2ccnc(Nc3cc(Cl)cc(Cl)c3)n2)c1 ... 0
Cc1cccc(-c2nc(Nc3cccc(C(N)=O)c3)c3ccccc3n2)n1 ... 73
C[C@@H]1CCCCN1c1cc(-c2ccc3c(N)n[nH]c3c2)nc(N)n1 ... 0
CSc1nn2c(=O)cc(N3CCOCC3)nc2n1Cc1cccc(C(F)(F)F)c1C ... 0
O=C(Nc1n[nH]c2nc(-c3nccs3)c(Br)cc12)C1CC1 ... 32
Cc1ccc(NC(=O)Nc2cc(C(C)(C)C)nn2-c2ccccc2)cc1 ... 0
Cc1ccccc1-n1cnc2c(N)ncnc21 ... 0
Cc1ccc(-c2cc(-c3c[nH]nc3-c3ccccn3)ccn2)cc1 ... 0
COc1cc2ncn(-c3cc(OCC4CCCO4)c(C(N)=O)s3)c2cc1OC (stereo not drawn) ... 0
Cc1c(O)cccc1Nc1ccnc2ccc(C(F)(F)F)cc12.Cl ... 58

Record COc1cc(Nc2nccc(N3CCC(NC(=O)Nc4cc(C)ccc4C)C3)n2)cc(OC)c1OC (stereo not drawn) . Reported %Inh: 22

Record "Cl.c1ccc(-c2n[nH]cc2-c2ccnc(-c3ccc(CN4CCOCC4)cc3)c2)nc1" . Reported %Inh: 0

Record CCCc1ccc(S(=O)(=O)NC2CCN(c3ccnc(Nc4ccc(F)cc4)n3)C2)cc1 (stereo not drawn) . Reported %Inh: 19

Record "Cc1cc(N2Cc3ccccc3C2)nc(Nc2ccc(S(=O)(=O)N3CCOCC3)cc2)n1.Cl" . Reported %Inh: 0

Record "O=c1cc(N2CCOCC2)nc2n(Cc3cccc(Cl)c3Cl)ccn12" . Reported %Inh: 31

Record "O=C(O)COc1ncnc2cc(-c3ccc4[nH]ncc4c3)sc12" . Reported %Inh: 0

Record "Cn1ccc2ncnc(Oc3ccc(NC(=O)Nc4ccccc4)cc3)c21" . Reported %Inh: 24

###

Catalogue of %Inh readings, one per entry.
- Tested on: NEK4
- test-parameters: concentration: 1 μM, replicates: in singlicate; n = 1
Quick reminder: number only, in %, skip the unit.

Example entries and their recorded answers appear below.
COc1cccc(NC(=O)NC2CCN(c3ccnc(Nc4ccc(F)cc4)n3)C2)c1 (stereo not shown) [GSK1379721] ... 0
O=C1NC(=O)C(N2CCc3ccccc32)=C1c1ccccc1Cl [SB-373598] ... 15
Cn1cncc1-c1ccc2ncnc(Nc3ccc(OCc4ccccc4)cc3)c2c1 [GW320571] ... 11
CN1C(=O)C(Nc2ccc(Cl)c(C(=O)O)c2)=C(c2ccc(Cl)cc2)C1=O [SB-404290] ... 21
CCCc1ccc(S(=O)(=O)NC2CCN(c3ccnc(Nc4ccc(F)cc4)n3)C2)cc1 (stereo not shown) [GSK1379715] ... 5

Record "CC(C)(C)c1ccc(C(=O)Nc2cn3cc(-c4cccnc4)ccc3n2)cc1" . Reported %Inh: 0

Record Cc1c(Cn2ccn3c(=O)cc(N4CCOCC4)nc23)cccc1C(F)(F)F [GSK2289044] . Reported %Inh: 0

Record Nc1ncnc2[nH]c(-c3ccccc3)nc12 [AH5015] . Reported %Inh: 26

Record CC1=C(C(=O)Nc2cc3cn[nH]c3cc2F)C(c2ccc(C(F)(F)F)cc2)CC(=O)N1 (stereo not shown) [GSK429286] . Reported %Inh: 24

Record Cc1cccc(-c2nc(Nc3cccc(C(N)=O)c3)c3ccccc3n2)n1 [GW876019] . Reported %Inh: 0

Record COc1ccc(Nc2nccc(NCCNC(=O)Nc3ccccc3F)n2)cc1 [GSK1379901] . Reported %Inh: 0

Record "CS(=O)(=O)c1ccc(-c2c(-c3ncn[nH]3)sc(N3CCOCC3)c2C#N)cc1" . Reported %Inh: 0

Record "Cn1ccc2ncnc(Oc3cccc(C(=O)Nc4ccccc4)c3)c21" . Reported %Inh: 0

###

- System: TYK2(JH2domain-pseudokinase)
- test-parameters: concentration: 1 μM, replicates: in singlicate; n = 1
Catalogue of %Inh readings, one per entry.
Quick reminder: number only, in %, skip the unit.

Example entries and their recorded answers appear below.
O=c1cc(N2CCOCC2)nc2n(Cc3cccc(Cl)c3Cl)ccn12 [GSK2286295] ... 0
Cc1cc(N2Cc3ccccc3C2)nc(Nc2ccc(S(=O)(=O)N3CCOCC3)cc2)n1.Cl [GSK1669917] ... 0
O=C(Nc1n[nH]c2nc(-c3nccs3)c(Br)cc12)C1CC1 [SB-742251] ... 77
Cc1nnc(-c2ccc3occ(-c4ccc(S(C)=O)cc4)c3c2)[nH]1 (stereo not shown) ... 59
CCCc1ccc(S(=O)(=O)NC2CCN(c3ccnc(Nc4ccc(F)cc4)n3)C2)cc1 (stereo not shown) [GSK1379715] ... 30
Cn1ccc2ncnc(Oc3ccc(Nc4nc5ccccc5[nH]4)cc3)c21 ... 0

Record O=C(Nc1n[nH]c2cc(-c3cccc(F)c3F)ccc12)C1CC1 [SB-733894] has TYK2(JH2domain-pseudokinase) %Inh equal to 0

Record "Fc1cccc(COc2nnc(-c3ccc4c(c3)CCO4)o2)c1" has TYK2(JH2domain-pseudokinase) %Inh equal to 6

Record Cc1cccc(-c2nc(Nc3ccc4[nH]ncc4c3)c3ccccc3n2)n1 [GW857175] has TYK2(JH2domain-pseudokinase) %Inh equal to 36

Record Cn1cncc1-c1ccc2ncnc(Nc3ccc(OCc4ccccc4)cc3)c2c1 [GW320571] has TYK2(JH2domain-pseudokinase) %Inh equal to 0

Record Cl.c1ccc(-c2n[nH]cc2-c2ccnc(-c3ccc(CN4CCOCC4)cc3)c2)nc1 [GW776245] has TYK2(JH2domain-pseudokinase) %Inh equal to 0

Record O=S(=O)(c1ccc(-c2ccnc3[nH]ccc23)cc1)N1CCCC1 [GSK846226] has TYK2(JH2domain-pseudokinase) %Inh equal to 20

Record CN1C(=O)C(Nc2ccc(Cl)c(C(=O)O)c2)=C(c2ccc(Cl)cc2)C1=O [SB-404290] has TYK2(JH2domain-pseudokinase) %Inh equal to 0
